Parameter MIC: see the listing below.
- Tested on: Staphylococcus aureus
- assay: Inhibition of TetK overexpressed in Staphylococcus aureus K2192 assessed as tetracycline MIC at 25 uM after 24 hrs by broth checkerboard method (reference value: 32 ug/ml)
test readout: MIC (µg/mL)

{"columns": ["molecule", "test readout", "observed"],
 "data": [
  ["CC(C)=CCOc1c2occc2cc2ccc(=O)oc12", "MIC", 32],
  ["COc1c(C(=O)/C=C(\\O)c2ccccc2)ccc2occc12", "MIC", 32],
  ["CC(C)=CCc1c(O)cc(O)c2ccc(=O)oc12", "MIC", 32],
  ["COc1ccc2ccc(=O)oc2c1CC=C(C)C", "MIC", 16],
  ["C=CC(C)(C)c1cc2cc3c(cc2oc1=O)OC(C)(C)C=C3", "MIC", 16],
  ["COc1cc(/C=C/C(=O)CC(=O)/C=C/c2ccc(O)c(OC)c2)ccc1O", "MIC", 32],
  ["COc1c2ccoc2c(OCC=C(C)C)c2oc(=O)ccc12", "MIC", 32],
  ["C/C=C(\\C)C(=O)OC1c2c(ccc3ccc(=O)oc23)OC(C)(C)C1OC(=O)/C(C)=C/C (stereo not given)", "MIC", 32],
  ["O=C(/C=C/C=C/c1ccc2c(c1)OCO2)N1CCCCC1", "MIC", 32],
  ["CC(=O)Oc1cc(OC(C)=O)c2ccc(=O)oc2c1CC=C(C)C", "MIC", 16]
]}
